Entry source: ChEMBL document CHEMBL1153396

Exercise: state measured Ki for each of the compounds provided.
Write down the numeric answer in µM and omit the unit.

Notebook entry, Carbonic anhydrase 2 (Homo sapiens, UniProt P00918) assay: Ki of CCCC(=O)[O-].[Na+] [SODIUM BUTYRATE] = ?
1030

Notebook entry, Carbonic anhydrase 2 (Homo sapiens, UniProt P00918) assay: Ki of O=C([O-])/C=C\C(=O)[O-].[Na+].[Na+] [SODIUM MALEATE] = ?
989

Notebook entry, Carbonic anhydrase 2 (Homo sapiens, UniProt P00918) assay: Ki of CCC(=O)[O-].[Na+] [SODIUM PROPIONATE] = ?
960

Notebook entry, Carbonic anhydrase 2 (Homo sapiens, UniProt P00918) assay: Ki of O=C([O-])C[C@H](O)C(=O)[O-].[Na+].[Na+] = ?
1870

Notebook entry, Carbonic anhydrase 2 (Homo sapiens, UniProt P00918) assay: Ki of CCCCC(=O)[O-].[Na+] [SODIUM VALERATE] = ?
257

Notebook entry, Carbonic anhydrase 2 (Homo sapiens, UniProt P00918) assay: Ki of C[C@H](O)C(=O)[O-].[Na+] = ?
3220

* * *

Exercise: state measured pKi for each of the molecules provided.
Experiment: Inhibition of Cryptococcus neoformans Can2
Scale explanation: pKi corresponds to minus log10 of a concentration expressed in moles per litre.

Fill blank: measured pKi of the molecule O=C([O-])c1ccccc1.[Na+] [SODIUM BENZOATE] is ____.
2.90

Fill blank: measured pKi of the molecule O=C([O-])C[C@H](O)C(=O)[O-].[Na+].[Na+] is ____.
3.05

Fill blank: measured pKi of the molecule O=C([O-])/C=C\C(=O)[O-].[Na+].[Na+] [SODIUM MALEATE] is ____.
5.06

Fill blank: measured pKi of the molecule CCCCC(=O)[O-].[Na+] [SODIUM VALERATE] is ____.
4.37

Fill blank: measured pKi of the molecule O=C([O-])CC(O)(CC(=O)[O-])C(=O)[O-].[Na+].[Na+].[Na+] [SODIUM CITRATE] is ____.
4.05

Fill blank: measured pKi of the molecule O=C(O)c1c(F)c(F)cc(F)c1F is ____.
4.31

Fill blank: measured pKi of the molecule O=C([O-])C(=O)[O-].[Na+].[Na+] [SODIUM OXALATE] is ____.
4.17

Fill blank: measured pKi of the molecule O=C[O-].[Na+] [SODIUM FORMATE] is ____.
4.27

Fill blank: measured pKi of the molecule CCC(=O)[O-].[Na+] [SODIUM PROPIONATE] is ____.
3.39

Fill blank: measured pKi of the molecule CCCC(=O)[O-].[Na+] [SODIUM BUTYRATE] is ____.
3.65

Fill blank: measured pKi of the molecule CC(=O)C(=O)O [PYRUVATE SODIUM] is ____.
3.10

Fill blank: measured pKi of the molecule C[C@H](O)C(=O)[O-].[Na+] is ____.
3.02

Fill blank: measured pKi of the molecule O=C([O-])CC(=O)[O-].[Na+].[Na+] [DISODIUM MALONATE] is ____.
3.10

Fill blank: measured pKi of the molecule CC(=O)[O-].[Na+] [SODIUM ACETATE] is ____.
5.14
